system: strains of Propionibacterium acnes; assay: MIC against anaerobes, agar dilution (CLSI), clinical isolates; type: cell-based; settings: Cutibacterium acnes, Propionibacterium acnes strain 4
Form field: MIC (one value per entry).
measurementLabel: MIC

[[record]]
molecule = "Cc1ccc2ncc(=O)n(CCN[C@H]3CC[C@H]4[C@@H](C3)OC(=O)N4c3ccc4c(n3)NC(=O)CO4)c2c1 [Compound 27]"
measurementlabel = "MIC"
result = "< 1 µg/mL"

[[record]]
molecule = "COc1ccc2ncc(=O)n(CCN[C@@H]3CC[C@@H]4[C@@H](C3)OC(=O)N4c3ccc4c(n3)NC(=O)CO4)c2c1 [Compound 21]"
measurementlabel = "MIC"
result = "< 1 µg/mL"

[[record]]
molecule = "CN[C@H](CC(C)C)C(=O)N[C@H]1C(=O)N[C@@H](CC(N)=O)C(=O)N[C@H]2C(=O)N[C@H]3C(=O)N[C@H](C(=O)N[C@H](C(=O)O)c4cc(O)cc(O)c4-c4cc3ccc4O)[C@H](O)c3ccc(c(Cl)c3)Oc3cc2cc(c3O[C@@H]2O[C@H](CO)[C@@H](O)[C@H](O)[C@H]2O[C@H]2C[C@](C)(N)[C@H](O)[C@H](C)O2)Oc2ccc(cc2Cl)[C@H]1O [VAN, vancomycin, reference compound]"
measurementlabel = "MIC"
result = "< 1 µg/mL"

[[record]]
molecule = "Cc1ncc([N+](=O)[O-])n1CCO [MTZ, metronidazole, reference compound]"
measurementlabel = "MIC"
result = "16 to 64 µg/mL"


----------
system: Enterobacter cloacae NCTC 13406; assay: MIC, broth microdilution (CLSI) versus planktonic bacteria; format: cell-based; conditions: NCTC13406; Enterobacter cloacae NCTC 13406; 16-20 h; mode of three independent experiments; read-out: MIC, Ecl NCTC 13406
Form field: MIC (one value per entry).
measurementLabel: MIC

[[record]]
smilesdata = "COc1ccc2ccc(=O)n(CCCN[C@@H]3CC[C@@H]4[C@@H](C3)OC(=O)N4c3ncc4c(n3)NC(=O)CO4)c2n1"
targetofassay = "Enterobacter cloacae NCTC 13406"
result = "1 to 10 µg/mL"

[[record]]
smilesdata = "N#Cc1ccc2ccc(=O)n(CCN[C@H]3CC[C@H]4[C@@H](C3)OC(=O)N4c3ccc4c(n3)NC(=O)CO4)c2c1"
targetofassay = "Enterobacter cloacae NCTC 13406"
result = "< 1 µg/mL"

[[record]]
smilesdata = "O=C1COc2ccc(N3C(=O)O[C@@H]4C[C@H](NCCn5c(=O)ccc6ccc(O)cc65)CC[C@H]43)nc2N1"
targetofassay = "Enterobacter cloacae NCTC 13406"
result = "1 to 10 µg/mL"

[[record]]
smilesdata = "COc1ncc2ccc(=O)n(CCN[C@@H]3CC[C@@H]4[C@@H](C3)OC(=O)N4c3ncc4c(n3)NC(=O)CO4)c2n1"
targetofassay = "Enterobacter cloacae NCTC 13406"
result = "1 to 10 µg/mL"

[[record]]
smilesdata = "O=C1COc2ccc(N3C(=O)O[C@H]4C[C@@H](NCCn5c(=O)ccc6ccc(OC(F)F)cc65)CC[C@@H]43)nc2N1"
targetofassay = "Enterobacter cloacae NCTC 13406"
result = "1 to 10 µg/mL"

[[record]]
smilesdata = "N#Cc1cnc2ccc(=O)n(CCCN[C@H]3CC[C@H]4[C@H](C3)OC(=O)N4c3ccc4c(n3)NC(=O)CO4)c2c1"
targetofassay = "Enterobacter cloacae NCTC 13406"
result = "1 to 10 µg/mL"

[[record]]
smilesdata = "COc1cnc2ccc(=O)n(CCN[C@@H]3CC[C@@H]4[C@@H](C3)OC(=O)N4c3ccc4c(n3)NC(=O)CO4)c2c1"
targetofassay = "Enterobacter cloacae NCTC 13406"
result = "< 1 µg/mL"

[[record]]
smilesdata = "COc1ccc2ccc(=O)n(CCN[C@H]3CC[C@H]4[C@H](C3)OC(=O)N4c3ccc4c(n3)NC(=O)CO4)c2n1"
targetofassay = "Enterobacter cloacae NCTC 13406"
result = "< 1 µg/mL"

[[record]]
smilesdata = "COc1cnc2ccc(=O)n(CCCN[C@H]3CC[C@H]4[C@H](C3)OC(=O)N4c3ccc4c(n3)NC(=O)CS4)c2c1"
targetofassay = "Enterobacter cloacae NCTC 13406"
result = "< 1 µg/mL"

[[record]]
smilesdata = "COc1cnc2ccc(=O)n(CCN[C@H]3CC[C@H]4[C@H](C3)OC(=O)N4c3ccc4c(n3)NC(=O)CO4)c2c1"
targetofassay = "Enterobacter cloacae NCTC 13406"
result = "< 1 µg/mL"

[[record]]
smilesdata = "N#Cc1ccc2c(ccc(=O)n2CCN[C@H]2CC[C@H]3[C@H](C2)OC(=O)N3c2ccc3c(n2)NC(=O)CO3)c1"
targetofassay = "Enterobacter cloacae NCTC 13406"
result = "10 to 100 µg/mL"

[[record]]
smilesdata = "COc1ccc2ccc(=O)n(CCN[C@@H]3CC[C@@H]4[C@@H](C3)OC(=O)N4c3ncc4c(n3)NC(=O)CO4)c2n1"
targetofassay = "Enterobacter cloacae NCTC 13406"
result = "< 1 µg/mL"

[[record]]
smilesdata = "O=C1COc2ccc(N3C(=O)O[C@@H]4C[C@H](NCCn5c(=O)cnc6cc(F)c(F)cc65)CC[C@H]43)nc2N1"
targetofassay = "Enterobacter cloacae NCTC 13406"
result = "< 1 µg/mL"


----------
tested on: E. coli NCTC 13476; test: MIC, broth microdilution (CLSI) versus planktonic bacteria; type: cell-based; details: NCTC13476; Escherichia coli NCTC 13476; 16-20 h; mode of three independent experiments; read-out: MIC, Ec NCTC 13476
Form field: MIC (one value per entry).
measurementLabel: MIC

[[record]]
smilesdata = "COc1ccc2ccc(=O)n(CCN[C@H]3CC[C@H]4[C@H](C3)OC(=O)N4c3ncc4c(n3)NC(=O)CO4)c2n1"
measurementlabel = "MIC"
result = "1 to 10 µg/mL"

[[record]]
smilesdata = "COc1cnc2ccc(=O)n(CCN[C@H]3CC[C@H]4[C@H](C3)OC(=O)N4c3ccc4c(n3)NC(=O)CO4)c2n1"
measurementlabel = "MIC"
result = "< 1 µg/mL"

[[record]]
smilesdata = "COc1ccc2ncc(=O)n(CCN[C@@H]3CC[C@@H]4[C@@H](C3)OC(=O)N4c3ccc4c(n3)NC(=O)CO4)c2c1"
measurementlabel = "MIC"
result = "< 1 µg/mL"

[[record]]
smilesdata = "COc1ccc2ccc(=O)n(CCCN[C@H]3CC[C@H]4[C@H](C3)OC(=O)N4c3ccc4c(n3)NC(=O)CS4)c2n1"
measurementlabel = "MIC"
result = "< 1 µg/mL"

[[record]]
smilesdata = "N#Cc1ccc2ccc(=O)n(CCCN[C@H]3CC[C@H]4[C@H](C3)OC(=O)N4c3ccc4c(n3)NC(=O)CO4)c2c1"
measurementlabel = "MIC"
result = "< 1 µg/mL"

[[record]]
smilesdata = "N#Cc1ccc2ncc(=O)n(CCN[C@H]3CC[C@H]4[C@@H](C3)OC(=O)N4c3ccc4c(n3)NC(=O)CO4)c2c1"
measurementlabel = "MIC"
result = "1 to 10 µg/mL"


----------
Form: system (E. coli NCTC 13476), quantity (MIC), values below.
measurementLabel: MIC

[[record]]
compound = "COc1ccc2ccc(=O)n(CCCN[C@H]3CC[C@H]4[C@H](C3)OC(=O)N4c3ccc4c(n3)NC(=O)CO4)c2n1"
targetofassay = "E. coli NCTC 13476"
result = "< 1 µg/mL"

[[record]]
compound = "COc1ccc2ncc(=O)n(CCNC3CCC4C(C3)OC(=O)N4c3ccc4c(n3)NC(=O)CO4)c2n1 (stereo in doubt)"
targetofassay = "E. coli NCTC 13476"
result = "< 1 µg/mL"

[[record]]
compound = "N#Cc1cnc2ccc(=O)n(CCN[C@H]3CC[C@H]4[C@H](C3)OC(=O)N4c3ccc4c(n3)NC(=O)CS4)c2c1"
targetofassay = "E. coli NCTC 13476"
result = "< 1 µg/mL"

[[record]]
compound = "O=C1COc2ccc(N3C(=O)O[C@H]4C[C@@H](NCCn5c(=O)cnc6ccc(F)cc65)CC[C@@H]43)nc2N1"
targetofassay = "E. coli NCTC 13476"
result = "< 1 µg/mL"

[[record]]
compound = "COc1ccc2ncc(=O)n(CCN[C@H]3CCC4C(C3)OC(=O)N4c3ccc4c(n3)NC(=O)CO4)c2n1 (stereo in doubt)"
targetofassay = "E. coli NCTC 13476"
result = "< 1 µg/mL"

[[record]]
compound = "N#Cc1cccc(-c2cccc(CN[C@@H]3CC[C@@H]4[C@@H](C3)OC(=O)N4c3ccc4c(n3)NC(=O)CO4)c2O)n1"
targetofassay = "E. coli NCTC 13476"
result = "< 1 µg/mL"

[[record]]
compound = "COc1cccc(-c2cccc(CN[C@@H]3CC[C@@H]4[C@@H](C3)OC(=O)N4c3ccc4c(n3)NC(=O)CO4)c2)n1"
targetofassay = "E. coli NCTC 13476"
result = "< 1 µg/mL"

[[record]]
compound = "O=C1COc2ccc(N3C(=O)O[C@H]4C[C@@H](NCCn5c(=O)ccc6ccc(OC(F)F)cc65)CC[C@@H]43)nc2N1"
targetofassay = "E. coli NCTC 13476"
result = "< 1 µg/mL"

[[record]]
compound = "COc1ccc2ccc(=O)n(CCN(CCN)[C@H]3CC[C@H]4[C@@H](C3)OC(=O)N4c3ccc4c(n3)NC(=O)CO4)c2n1"
targetofassay = "E. coli NCTC 13476"
result = "1 to 10 µg/mL"

[[record]]
compound = "N#Cc1cccc(-c2cccc(CN[C@H]3CC[C@H]4[C@H](C3)OC(=O)N4c3ccc4c(n3)NC(=O)CO4)c2)n1"
targetofassay = "E. coli NCTC 13476"
result = "1 to 10 µg/mL"

[[record]]
compound = "O=C1COc2ccc(N3C(=O)O[C@H]4C[C@@H](NCCCn5c(=O)cnc6ccc(F)cc65)CC[C@@H]43)nc2N1"
targetofassay = "E. coli NCTC 13476"
result = "< 1 µg/mL"

[[record]]
compound = "O=C1COc2ccc(N3C(=O)O[C@H]4C[C@@H](NCCn5c(=O)cnc6cc(F)c(F)cc65)CC[C@@H]43)nc2N1"
targetofassay = "E. coli NCTC 13476"
result = "< 1 µg/mL"

[[record]]
compound = "N#Cc1ccc2ncc(=O)n(CCN[C@H]3CC[C@H]4[C@H](C3)OC(=O)N4c3ccc4c(n3)NC(=O)CO4)c2c1"
targetofassay = "E. coli NCTC 13476"
result = "1 to 10 µg/mL"

[[record]]
compound = "COc1ncc2ccc(=O)n(CCN[C@@H]3CC[C@@H]4[C@@H](C3)OC(=O)N4c3ccc4c(n3)NC(=O)CO4)c2n1"
targetofassay = "E. coli NCTC 13476"
result = "1 to 10 µg/mL"

[[record]]
compound = "COc1cnc2ccc(=O)n(CCN[C@H]3CC[C@H]4[C@H](C3)OC(=O)N4c3ccc4c(n3)NC(=O)CS4)c2c1"
targetofassay = "E. coli NCTC 13476"
result = "< 1 µg/mL"

[[record]]
compound = "O=C1COc2ccc(N3C(=O)O[C@@H]4C[C@@H](NCCn5c(=O)cnc6cc(F)c(F)cc65)CC[C@@H]43)nc2N1"
targetofassay = "E. coli NCTC 13476"
result = "< 1 µg/mL"

[[record]]
compound = "CCCOc1ccc2ccc(=O)n(CCN[C@H]3CC[C@H]4[C@H](C3)OC(=O)N4c3ccc4c(n3)NC(=O)CO4)c2c1"
targetofassay = "E. coli NCTC 13476"
result = "1 to 10 µg/mL"

[[record]]
compound = "COc1cc2c(ccc(=O)n2CCN[C@H]2CC[C@H]3[C@H](C2)OC(=O)N3c2ccc3c(n2)NC(=O)CO3)cn1"
targetofassay = "E. coli NCTC 13476"
result = "1 to 10 µg/mL"

